Test system: HCT-116 colon
Assay: NCI-60 one-dose screen, 48 h (100 = growth as untreated, 0 = no growth, -100 = all killed)
Details: 10 µM unless noted
Experimental: Growth inhibition of the HCT-116 human tumor cell line is measured as a screen for anti-cancer activity. Cells are grown in 96 well plates and exposed to the test compound for 48 hours. Compounds are tested at a single concentration, which is 10^-5 M for most compounds. The reported endpoint is percent growth (GI% or GIPRCNT), where numbers from 0 - 100% represent growth inhibition, and numbers from -100% - 0 represent cell death. For example, a value of 40 represents 60% growth inhibition. […]
About 83,000 compounds went through this panel and 20% of them were active in at least one assay; those are over-represented in the sample as a whole. Calls of active or inactive are those of the source. The calls were made as follows: active = growth percent below 10; inactive = the rest.
Measurement Name: growth

Solved cases (3 shown):
COC12C=C/C(=C(/C(=O)OCc3cncnc3)C(=O)CCCCCCCCC3(OC)C=C/C(=C(/C(=O)OCc4cncnc4)C(=O)CCCCCCCC1)O3)O2; -63.8% (active)
C#Cc1cccc(Nc2ncnc3cc(NC(=O)CCl)ccc23)c1; -76.3% (active)
COC1C(O)CC(OC2CC(OC3CC(O[C@@H]4C(=O)c5c(cc6cc(OC7CC(OC8CC(O)C(O)C(C)O8)C(O)C(C)O7)c(C)c(O)c6c5O)CC4[C@H](OC)C(=O)O)OC(C)C3O)OC(C)C2O)OC1C (some centres not stated); 15.4% (inactive)

GET /values?readout=growth&item= O=C(NCCNC(c1ccccc1)C(NCCNC(=O)c1ccccc1)c1ccccc1)c1ccccc1 (configuration not stated)
53.8% (inactive)

And then "COc1ccc(C(=O)C/C(=C\c2ccc(O)c(OC)c2)C(=O)NN)cc1" , what is it?
72.2% (inactive)

And then "COc1cc([C@@H](CCO)C[C@H](C)c2ccc3ccccc3c2)cc(OC)c1OC" , what is it?
18.7% (inactive)

And then "CNC(=O)c1cc(Oc2ccc3c(c2)sc2nc(-c4cc(C(F)(F)F)cc(C(F)(F)F)c4)cn23)ccn1" , what is it?
36.3% (inactive)

And then "C=C(C)[C@@H]1CC[C@]2(C(=O)N3CCN(C)CC3)CC[C@]3(C)[C@H](CC[C@@H]4[C@@](C)(CCC(=O)O)[C@H](C(=C)C)CC[C@]43C)[C@@H]12" , what is it?
68.2% (inactive)

And then O=C(/C=C/C12c3ccccc3C(c3ccccc31)C1C(=O)NC(=O)C12)c1ccco1 (configuration not stated) , what is it?
7.57% (active)

====

Test system: RPMI-8226 leukemia
Assay: NCI-60 one-dose screen, 48 h (100 = growth as untreated, 0 = no growth, -100 = all killed)
Conditions: 10 µM unless noted
About 83,000 compounds went through this panel and 20% of them were active in at least one assay; those are over-represented in the sample as a whole.
Each item that follows carries a reported growth.
Provide only the numeric value, understood in %.

Solved cases (6 shown):
CC1=C2[C@@H](CC1)[C@]1(C)O[C@@](C3CCNCC3)(C[C@H]1OC(=O)CO)[C@H]2OC(=O)/C=C/c1ccccc1; 82.3
Cc1ncc(C(=O)Nc2ccc(CN3CCN(C)CC3)c(C(F)(F)F)c2)cc1C#Cc1cnc(N)c2ccc(C#N)cc12; 7.42
Nc1c(C(=O)Nc2cccc3ncccc23)sc2nc3c(cc12)CN(Cc1ccccc1)CC3; 58.4
O=C(c1ccc(Br)cc1)C(Br)C(c1ccc(Cl)cc1)C(c1ccccc1)[N+](=O)[O-] (configuration not stated); 92.1
COC(=O)c1sccc1-c1cc(O)c(C(=O)Nc2ccccc2)s1; 93.4
O=C1Nc2ccccc2/C1=N/N1C(=O)CN(CCCl)C1=O; 101

Okay, next one:
GET /values?readout=growth&item= Nc1ncnc2c1N=C(c1ccc(F)cc1)CC(c1cccc(Nc3ccnc4cc(Cl)ccc34)c1)N2 (configuration not stated)
25.9
